Exercise: for every item that follows, state its recorded EC50.
Test system: Coxsackievirus B2
Assay: Antiviral activity against Human coxsackievirus B2 infected in african green monkey Vero cells after 24 to 36 hrs by MTS-based CPE reduction assay
Assay type: functional, organism-based
Conditions: Enterovirus B
One number for each entry, in nM.

- molecular_string: "CC(C)S(=O)(=O)n1c(N)nc2ccc(/C(=N/O)c3ccccc3)cc21"
  unit_of_measure: "nM"
  EC50: 150
- molecular_string: "CC(C)(C)c1ccc(C(=O)NNc2c(Br)cccc2Br)cc1"
  unit_of_measure: "nM"
  EC50: 1570
- molecular_string: "CN(C)c1ccc(C(=O)NNc2c(Cl)cccc2Cl)cc1"
  unit_of_measure: "nM"
  EC50: 0.9
- molecular_string: "CN(C)c1ccc(C(=O)NNc2c(Br)cccc2Br)cc1"
  unit_of_measure: "nM"
  EC50: 0.5

Prompt: Determine from records and report EC50 for `Cc1cccc(C)c1NNC(=O)c1ccc(C(C)(C)C)cc1`
Completion: 1.6

----------
Test: Selectivity index, ratio of CC50 for human RD cells to EC50 for Enterovirus 71
Assay type: toxicity, cell-based
Conditions: read-out: Ratio CC50/EC50
Exercise: for every item that follows, state its recorded selectivity ratio.

Quick request: selectivity ratio for each listed item, please.
1. CCOc1ccc(C(=O)NNc2c(Cl)cccc2Cl)cc1
2. Cc1ccc(C(=O)NNc2c(C)cccc2C)cc1
3. CC(C)(C)c1ccc(C(=O)NNc2c(Br)cccc2Br)cc1

Completion:
1: > 665; 2: > 23.2; 3: > 641

Quick request: selectivity ratio for each listed item, please.
1. CCc1ccc(C(=O)NNc2c(Cl)cccc2Cl)cc1
2. COc1cccc(OC)c1NNC(=O)c1ccc(C(C)(C)C)cc1

Completion:
> 154
> 8.9

Prompt: Determine from records and report selectivity ratio for `Cc1ccc(C(=O)NNc2c(Cl)cccc2Cl)cc1`
Completion: > 281

----------
Experiment: Cytotoxicity against african green monkey Vero cells assessed as reduction in cell viability after 24 to 36 hrs by MTS-based CPE reduction assay
Conditions: chlorocebus sabaeus
measure_name: CC50

Some entries whose results are on file:
- molecular_string: "Cc1cccc(Cl)c1NNC(=O)c1ccc(C(C)(C)C)cc1"
  result: "49.2 µM"
- molecular_string: "CCCc1ccc(C(=O)NNc2c(Cl)cccc2Cl)cc1"
  result: "> 248 µM"
- molecular_string: "Cc1ccc(C(=O)NNc2c(Cl)cccc2Cl)cc1"
  result: "> 271 µM"
- molecular_string: "CSc1ccc(C(=O)NNc2c(C)cccc2Cl)cc1"
  result: "107 µM"
- molecular_string: "CCOc1ccc(C(=O)NNc2c(Br)cccc2Br)cc1"
  result: "> 193 µM"
- molecular_string: "COc1ccc(C(=O)NNc2c(C)cccc2C)cc1"
  result: "> 296 µM"

Quick request: CC50 for each listed item, please.
1. COc1ccc(C(=O)NNc2c(C)cccc2Cl)cc1
2. COc1ccc(C(=O)NNc2c(F)cccc2F)cc1
3. Cc1cccc(Cl)c1NNC(=O)c1ccc(N(C)C)cc1
4. CCOc1ccc(C(=O)NNc2c(Cl)cccc2Cl)cc1
5. Cc1cccc(C)c1NNC(=O)c1ccc(N(C)C)cc1

Completion:
1: > 275 µM; 2: > 288 µM; 3: 92.8 µM; 4: > 246 µM; 5: > 282 µM

Quick request: CC50 for each listed item, please.
1. CCCc1ccc(C(=O)NNc2c(Br)cccc2Br)cc1
2. CCCc1ccc(C(=O)NNc2c(C)cccc2C)cc1

Completion:
["> 194 µM", "> 283 µM"]

----------
Experiment: Selectivity index, ratio of CC50 for human RD cells to EC50 for Enterovirus 71
Format: toxicity, cell-based
Settings: read-out: Ratio CC50/EC50
measure_name: selectivity ratio

Some entries whose results are on file:
- molecular_string: "CCCc1ccc(C(=O)NNc2c(F)cccc2F)cc1"
  selectivity ratio: "> 5.4"
- molecular_string: "Cc1cccc(Cl)c1NNC(=O)c1ccc(C(C)(C)C)cc1"
  selectivity ratio: 65.1
- molecular_string: "COc1ccc(C(=O)NNc2c(Br)cccc2Br)cc1"
  selectivity ratio: "> 76.1"

Quick request: selectivity ratio for each listed item, please.
1. CCc1ccc(C(=O)NNc2c(Br)cccc2Br)cc1
2. COc1ccc(C(=O)NNc2c(C)cccc2Cl)cc1
3. CN(C)c1ccc(C(=O)NNc2c(Cl)cccc2Cl)cc1

Completion:
1: > 127; 2: > 17.9; 3: > 8230

Quick request: selectivity ratio for each listed item, please.
1. Cc1cccc(Cl)c1NNC(=O)c1ccc(N(C)C)cc1
2. CCOc1ccc(C(=O)NNc2c(Br)cccc2Br)cc1

Completion:
682
> 362

----------
System: Enterovirus A71
Assay: Antiviral activity against Human enterovirus 71 infected in monkey African green Vero cells by MTS-based CPE reduction assay
Format: functional, organism-based
Details: Enterovirus A, Vero; read-out: EC50
measure_name: EC50

- molecular_string: "O=C(NNc1c(Cl)cccc1Cl)c1ccccc1"
  test_system: "Enterovirus A71"
  result: "> 100 µM"

Quick request: EC50 for each listed item, please.
1. CC(C)c1cccc(C(C)C)c1NNC(=O)c1ccc(C(C)(C)C)cc1
2. CCOc1ccc(C(=O)NNc2c(Cl)cc(Cl)cc2Cl)cc1

Completion:
1. > 100 µM
2. > 100 µM

Quick request: EC50 for each listed item, please.
1. O=C(NNc1c(Cl)cccc1Cl)c1ccccn1
2. CCOc1ccc(NNC(=O)c2c(Cl)cccc2Cl)cc1

Completion:
1: > 100 µM; 2: > 100 µM

----------
System: Enterovirus A71
Experiment: Antiviral activity against Human enterovirus 71 infected in monkey African green Vero cells by MTS-based CPE reduction assay
Assay type: functional, organism-based
Conditions: Enterovirus A, Vero; read-out: EC50
measure_name: log10(EC50) (log10 of the value in µM)
Annotation: log10 of EC50, µM basis.

Some entries whose results are on file:
- molecular_string: "Cc1cccc(Cl)c1NNC(=O)c1ccc(N(C)C)cc1"
  numeric_value: -0.55
- molecular_string: "CCOc1ccc(C(=O)NNc2c(Br)cccc2Br)cc1"
  numeric_value: -0.43
- molecular_string: "Cc1ccc(C(=O)NNc2c(C)cccc2Cl)cc1"
  numeric_value: 1.11

Quick request: log10(EC50) for each listed item, please.
1. CCCc1ccc(C(=O)NNc2c(C)cccc2C)cc1
2. COc1ccccc1C(=O)NNc1c(Br)cccc1Br

Completion:
1: -0.02; 2: 1.73

----------
Exercise: for every item that follows, state its recorded selectivity ratio.
Test: Selectivity index, ratio of CC50 for human RD cells to EC50 for Enterovirus 71
Assay type: toxicity, cell-based
Conditions: read-out: Ratio CC50/EC50
Numbers only.

- molecular_string: "Cc1cc(CCCCCCCOc2ccc(C3=NCCO3)cc2)on1"
  selectivity ratio: 10.9

# evaluate next
Prompt: Determine from records and report selectivity ratio for `CC(C)(C)c1ccc(C(=O)NNc2c(Cl)cccc2Cl)cc1`
Completion: 43.2
